Cited source for all entries: patent US20240010684A1

- system_under_test: T1, recombinant human MASP1 (amino acids 297-699, C-terminal His Tag) (human, UniProt P48740 297-699)
- T1 sequence: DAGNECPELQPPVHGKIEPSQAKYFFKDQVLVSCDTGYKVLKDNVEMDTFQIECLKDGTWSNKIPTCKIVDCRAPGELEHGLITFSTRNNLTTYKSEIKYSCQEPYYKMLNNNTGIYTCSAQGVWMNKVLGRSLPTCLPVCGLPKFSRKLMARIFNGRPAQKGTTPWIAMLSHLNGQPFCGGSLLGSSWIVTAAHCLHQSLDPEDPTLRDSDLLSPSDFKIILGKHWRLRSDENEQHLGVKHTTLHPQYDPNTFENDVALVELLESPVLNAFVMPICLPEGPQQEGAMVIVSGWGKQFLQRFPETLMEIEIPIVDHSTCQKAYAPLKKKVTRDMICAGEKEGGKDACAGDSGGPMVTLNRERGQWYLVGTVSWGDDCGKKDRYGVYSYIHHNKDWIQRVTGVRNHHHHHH
- test_name: cell-based or functional assay
Bridges are numbered along the chain shown (N, C = ends). Where no end group is shown, it is not given here. [ ]: non-standard residue; d: D form. Oic = O=C(O)[C@@H]1C[C@@H]2CCCC[C@@H]2N1; tBuAla = CC(C)(C)C[C@H](N)C(=O)O; Pen = CC(C)(S)[C@H](N)C(=O)O; Orn = NCCC[C@H](N)C(=O)O; Abu = CC[C@H](N)C(=O)O; Dap = NC[C@H](N)C(=O)O; PEG2 = NCCOCCOCCC(=O)O; Ahx = NCCCCCC(=O)O; Sar = CNCC(=O)O
Classify: yes when human MASP1 IC50 is strictly less than 50 nM; no when human MASP1 IC50 is not.

>>> qualitative_label("cyclo([Ahx]AICSRS[tBuAla]PPI[Pen]I) (disulfide 4-12; also: TFA salt) [Example 72: (Ahx)**-AIC+SRS-((tBu)A)-PPI-(Pen)+-I**]")
"yes"
>>> qualitative_label("cyclo([Ahx]GICSRSLPPICIP[dD]) (disulfide 4-12; also: TFA salt) [Example 16: (Ahx)**-GIC+SRSLPPIC+IPd**]")
"no"
>>> qualitative_label("[Orn]ICSRS[tBuAla]PPI[Pen]IP (lactam 1-C; disulfide 3-11; also: TFA salt) [Example 71: (Orn)++-IC+SRS-((tBu)A)-PPI-(Pen)+-IP**]")
"yes"
>>> qualitative_label("cyclo([PEG2]GICSRSLPPICIPD) (disulfide 4-12; also: TFA salt) [Example 24: (PEG1(10 atoms))**-GIC+SRSLPPIC+IPD**]")
"no"
>>> qualitative_label("[Orn]ICSRS[tBuAla]PPI[Pen]I (lactam 1-C; disulfide 3-11; also: TFA salt) [Example 66: (Orn)++-IC+SRS-((tBu)A)-PPI-(Pen)+-I**]")
"yes"
>>> qualitative_label("cyclo([Ahx][Abu]ICSRS[tBuAla]PPI[Pen]IPD) (disulfide 4-12; also: TFA salt) [Example 38: (Ahx)**-(Abu)-IC+SRS-((tBu)A)-PPI-(Pen)+-IPD**]")
"yes"
>>> qualitative_label("cyclo([Ahx]AICSRS[tBuAla]PPICIPD) (disulfide 4-12; also: TFA salt) [Example 46: (Ahx)**-AIC+SRS-((tBu)A)-PPIC+IPD**]")
"no"
>>> qualitative_label("[dK]ICSRS[tBuAla]PPI[Pen]I (lactam 1-C; disulfide 3-11; also: HCl salt) [Example 78: k++-IC+SRS-((tBu)A)-PPI-(Pen)+-I** (HCl Salt)]")
"yes"
>>> qualitative_label("cyclo([Orn]GICSRS[tBuAla]PPI[Pen]IP) (disulfide 4-12; also: TFA salt) [Example 96: (Orn)**-GIC+SRS-((tBu)A)-PPI-(Pen)+-IP**]")
"yes"
>>> qualitative_label("cyclo(GSGICSRSLPPICIPDS) (disulfide 5-13; not fully specified; printed as G**SGIC+SRSLPPIC+IPDS**; also: TFA salt) [Example 21: G**SGIC+SRSLPPIC+IPDS**]")
"no"
>>> qualitative_label("cyclo([Ahx]AICSRS[tBuAla]PPI[Pen]IPD) (disulfide 4-12; also: TFA salt) [Example 27: (Ahx)**-AIC+SRS-((tBu)A)-PPI-(Pen)+-IPD**]")
"yes"
>>> qualitative_label("cyclo([Ahx]AICSRSLPPICIPD) (disulfide 4-12; also: TFA salt) [Example 45: (Ahx)**-AIC+SRSLPPIC+IPD**]")
"no"
>>> qualitative_label("cyclo([Ahx]ICSRS[tBuAla]PPI[Pen]IP) (disulfide 3-11; also: TFA salt) [Example 51: (Ahx)**-IC+SRS-((tBu)A)-PPI-(Pen)+-IP**]")
"yes"
>>> qualitative_label("cyclo([Dap][Dap]ICSRS[tBuAla]PPI[Pen]I) (disulfide 4-12; also: TFA salt) [Example 57: (Dap)**-(Dap)-IC+SRS-((tBu)A)-PPI-(Pen)+-I**]")
"yes"
>>> qualitative_label("[Ahx]GICSRSLP[Oic]I[Pen]IPE-NH2 (disulfide 4-12; lactam N-15; also: TFA salt) [Example 83: (Ahx)**-GIC+SRSLP-(Oic)-I-(Pen)+-IPE++-NH2]")
"yes"
>>> qualitative_label("cyclo([Ahx]AICSRSLP[Oic]ICIP) (disulfide 4-12; also: TFA salt) [Example 25: (Ahx)**-AIC+SRSLP-(Oic)-IC+IP**]")
"no"
>>> qualitative_label("[Ahx][Sar]AICSRSLP[Oic]I[Pen]IPE-NH2 (disulfide 5-13; lactam N-16; also: TFA salt) [Example 77: (Ahx)**-((N-Me)G)-AIC+SRSLP-(Oic)-I-(Pen)+-IPE++-NH2]")
"yes"
>>> qualitative_label("[Ahx]AICSRSLP[Oic]I[Pen]IPD-NH2 (disulfide 4-12; lactam N-15; also: TFA salt) [Example 43: (Ahx)**AIC+SRSLP-(Oic)-I-(Pen)+-IPD++-NH2]")
"yes"
